Biological target: RORγ (Homo sapiens)
Construct: The concentration of B-RORγ LBD was 40 nM
Sequence (P51449 269-508 limits assumed): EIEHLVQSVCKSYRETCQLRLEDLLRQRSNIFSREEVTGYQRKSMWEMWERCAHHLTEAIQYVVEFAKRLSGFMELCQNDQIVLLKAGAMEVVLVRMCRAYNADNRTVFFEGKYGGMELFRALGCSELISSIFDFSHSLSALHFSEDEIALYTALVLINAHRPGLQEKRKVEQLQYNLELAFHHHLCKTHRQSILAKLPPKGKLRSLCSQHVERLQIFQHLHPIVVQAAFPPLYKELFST
Assay: Fluorescence resonance energy transfer (FRET) test, B-RORγ LBD / Biotin-SRC1
Type: biochemical
Method: Biological Example 1 Fluorescence Resonance Energy Transfer (FRET) Test (1) Preparation of RORγ Test Buffer and 10 mM of DTT 100 mL of 1× Basic test buffer (HEPES (pH 7.4), 100 mM NaCl, 0.01% BSA) was prepared, and 154.25 mg of DTT was added. The mixture was well mixed. (2) Preparation of Compound with Gradient Concentration […] After incubation at room temperature for 1 hour, the fluorescence values at 665 nm and 615 nm were measured with an EnVision plate reader, and the inhibition rate was calculated. […]
pIC50: −log10 of the molar value.
PROPERTY_NAME: pIC50

{"COMPOUND": "CCCOC[C@@H]1C[C@@H](Oc2ccc(C(F)(F)F)cc2)CN1c1ccc(C(=O)N[C@@H](CO)c2ccc(S(=O)(=O)CC)cc2)cc1 [Example 27]", "PROPERTY_NAME": "pIC50", "OBSERVED_MEASUREMENT": 7.68}
{"COMPOUND": "CCS(=O)(=O)c1ccc([C@H](CO)NC(=O)c2ccc(N3C[C@H](Oc4ccc(C(F)(F)F)cc4)C[C@H]3CCOC(F)F)cc2)cc1 [Example 46]", "PROPERTY_NAME": "pIC50", "OBSERVED_MEASUREMENT": 7.88}
{"COMPOUND": "CCS(=O)(=O)c1ccc([C@H](CO)NC(=O)c2ccc(N3CC[C@H](Oc4ccc(C(F)(F)F)cc4)C3)c(F)c2)cc1 [Example 79]", "PROPERTY_NAME": "pIC50", "OBSERVED_MEASUREMENT": 7.89}
{"COMPOUND": "CCS(=O)(=O)c1ccc([C@H](CO)NC(=O)c2cnc(N3C[C@@H](Oc4ccc(C(F)(F)F)cc4)C[C@H]3COC(F)F)nc2)cc1 [Example 64]", "PROPERTY_NAME": "pIC50", "OBSERVED_MEASUREMENT": 8.52}
{"COMPOUND": "CCS(=O)(=O)c1ccc([C@H](CCO)NC(=O)c2cnc(N3C[C@@H](Oc4ccc(OC(F)(F)F)cc4)C[C@H]3COC(F)F)c(F)c2)cc1 [Example 116]", "PROPERTY_NAME": "pIC50", "OBSERVED_MEASUREMENT": 8.00}
{"COMPOUND": "CCS(=O)(=O)c1ccc([C@H](CO)NC(=O)c2ccc(N3C[C@@H](Oc4ccc(C(F)(F)F)cc4)C[C@H]3COC(F)F)cc2)cc1 [Example 39]", "PROPERTY_NAME": "pIC50", "OBSERVED_MEASUREMENT": 8.52}
{"COMPOUND": "CCC(F)(F)OC[C@@H]1C[C@H](Oc2ccc(C(F)(F)F)cc2)CN1c1ccc(C(=O)N[C@@H](CO)c2ccc(S(=O)(=O)CC)cc2)cn1 [Example 55]", "PROPERTY_NAME": "pIC50", "OBSERVED_MEASUREMENT": 8.05}
{"COMPOUND": "CCS(=O)(=O)c1ccc(CNC(=O)c2ccc(N3CCC(N(C)c4ccc(C(F)(F)F)cc4)C3)cc2)cc1 (stereo not drawn) [Example 10]", "PROPERTY_NAME": "pIC50", "OBSERVED_MEASUREMENT": 7.64}
{"COMPOUND": "CCS(=O)(=O)c1ccc([C@H](CO)NC(=O)c2ccc(N3C[C@@H](Oc4ccc(C(F)(F)F)cc4)C[C@H]3COC(F)F)nc2OC)cc1 [Example 88]", "PROPERTY_NAME": "pIC50", "OBSERVED_MEASUREMENT": 7.52}
{"COMPOUND": "CCS(=O)(=O)c1ccc([C@H](CO)NC(=O)c2ccc(N3C[C@H](Oc4ccc(C(F)(F)F)cc4)C[C@H]3CO[C@H]3CCOC3)cc2)cc1 [Example 33]", "PROPERTY_NAME": "pIC50", "OBSERVED_MEASUREMENT": 6.88}
{"COMPOUND": "CCS(=O)(=O)c1ccc([C@H](CO)NC(=O)c2ccc(N3C[C@H](Oc4ccc(C(F)(F)F)cc4)C[C@H]3COCC(F)(F)F)cc2)cc1 [Example 30]", "PROPERTY_NAME": "pIC50", "OBSERVED_MEASUREMENT": 7.77}
{"COMPOUND": "CCOC[C@@H]1CC(Oc2ccc(C(F)(F)F)cc2)CN1c1ccc(C(=O)NCc2ccc(S(=O)(=O)CC)cc2)cc1 (stereo partly drawn) [Example 19]", "PROPERTY_NAME": "pIC50", "OBSERVED_MEASUREMENT": 7.73}
